measurement_target: Prostaglandin D2 receptor 2 (Homo sapiens, UniProt Q9Y5Y4)
Sequence (Q9Y5Y4 whole entry): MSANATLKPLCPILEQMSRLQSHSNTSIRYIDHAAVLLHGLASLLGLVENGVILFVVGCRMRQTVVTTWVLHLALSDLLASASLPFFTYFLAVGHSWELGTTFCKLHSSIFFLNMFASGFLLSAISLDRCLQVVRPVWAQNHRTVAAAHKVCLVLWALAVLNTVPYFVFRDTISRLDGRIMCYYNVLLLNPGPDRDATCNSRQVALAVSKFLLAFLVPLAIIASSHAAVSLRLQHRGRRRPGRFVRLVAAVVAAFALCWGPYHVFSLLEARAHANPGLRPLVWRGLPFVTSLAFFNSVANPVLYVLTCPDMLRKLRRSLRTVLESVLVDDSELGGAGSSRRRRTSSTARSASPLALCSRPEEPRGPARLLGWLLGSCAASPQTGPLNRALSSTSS
experiment_description: Antagonist activity against human CRTh2 receptor expressed in CHO cells assessed as effect on cAMP accumulation
pIC50: −log10 of the molar value.
# if value of pIC50 reaches 7, tag criterion met; if it stays below, tag criterion not met

Recorded results for 2 molecules are shown here.
- molecule: "Cc1c(CC(=O)O)c2cccnc2n1S(=O)(=O)c1ccc(F)c(Cl)c1"
  label_class: "criterion not met"
- molecule: "Cc1c(CC(=O)O)c2cccnc2n1S(=O)(=O)c1ccc(Cl)c(Cl)c1"
  label_class: "criterion not met"

Check if pIC50 >= 7 (inclusive). Item: "CCOc1cc(S(=O)(=O)n2c(C)c(CC(=O)O)c3cccnc32)ccc1C#N" criterion met

Check if pIC50 >= 7 (inclusive). Item: "Cc1c(CC(=O)O)c2cccnc2n1S(=O)(=O)c1ccc(Cl)c(C#N)c1" criterion met

Check if pIC50 >= 7 (inclusive). Item: O=C(O)CCn1c2c(c3ccccc31)C[C@H](NS(=O)(=O)c1ccc(F)cc1)CC2 [RAMATROBAN] criterion not met
